All figures here come from PubChem BioAssay (NCI).

System: UACC-257 melanoma
assayNotes: NCI-60 one-dose screen, 48 h
particulars: 10 µM unless noted
The panel holds about 83,000 compounds, 20% with a hit somewhere; the sample as a whole holds those more often. The source made the active and inactive calls. How the source made its calls: active means growth percent below 10; inactive means the rest.
Choose the fitting class; nothing outside active, inactive is accepted.

Here are 10 compounds together with their reported answers.
[[record]]
compound = "Nc1ccn(C2O[C@H](CO)[C@@H](O)[C@H]2O)c(=O)n1 (stereo partly specified)"
testtarget = "UACC-257 melanoma"
answerlabel = "inactive"

[[record]]
compound = "S=C1NC2(c3ccccc3)CCC(=S)N2c2ccccc21 (stereo unspecified)"
testtarget = "UACC-257 melanoma"
answerlabel = "inactive"

[[record]]
compound = "O=c1oc2ccc(F)cc2c(=O)n1-c1ccc(Br)cc1F"
testtarget = "UACC-257 melanoma"
answerlabel = "active"

[[record]]
compound = "COC(=O)/C(CCC=C(C)C)=C1\\[C@@H](OC(C)=O)C[C@@]2(C)[C@H]1C[C@@H](O)[C@H]1[C@@]3(C)CC[C@H](NCCCNCCCCNCCCN)[C@@H](C)[C@@H]3CC[C@@]12C"
testtarget = "UACC-257 melanoma"
answerlabel = "inactive"

[[record]]
compound = "Nc1nonc1-n1nncc1-c1cccnc1"
testtarget = "UACC-257 melanoma"
answerlabel = "inactive"

[[record]]
compound = "COc1cc(C(=O)NN=C2c3ccccc3-c3ccccc32)cc(OC)c1OC"
testtarget = "UACC-257 melanoma"
answerlabel = "inactive"

[[record]]
compound = "Cc1c(-c2csc(-n3nc(C(F)(F)F)cc3C(F)(F)F)n2)no[n+]1[O-]"
testtarget = "UACC-257 melanoma"
answerlabel = "inactive"

[[record]]
compound = "COc1cccc(/C=C/C(=O)c2c(C)nc3ccccc3c2/C=C/c2ccccc2)c1OC"
testtarget = "UACC-257 melanoma"
answerlabel = "inactive"

[[record]]
compound = "Cc1cc(OC(=O)c2ccc([N+](=O)[O-])cc2)nc2[nH]c(=O)sc12"
testtarget = "UACC-257 melanoma"
answerlabel = "inactive"

[[record]]
compound = "c1ccc2cc3c(Nc4ccc(N5CCOCC5)cc4)ccnc3cc2c1"
testtarget = "UACC-257 melanoma"
answerlabel = "inactive"


Q. State the result this test recorded for `CCCCCCc1cc2cc(-c3csc(/C=C/c4ccccc4)n3)c(=O)oc2cc1O` .
A. active
